Reference for the values: ChEMBL document CHEMBL1795325

Collected pIC50 values appear next to each entry.
Target: Cyclin-dependent kinase 5/CDK5 activator 1 (Homo sapiens, UniProt Q00535)
Sequence (Q00535 whole entry): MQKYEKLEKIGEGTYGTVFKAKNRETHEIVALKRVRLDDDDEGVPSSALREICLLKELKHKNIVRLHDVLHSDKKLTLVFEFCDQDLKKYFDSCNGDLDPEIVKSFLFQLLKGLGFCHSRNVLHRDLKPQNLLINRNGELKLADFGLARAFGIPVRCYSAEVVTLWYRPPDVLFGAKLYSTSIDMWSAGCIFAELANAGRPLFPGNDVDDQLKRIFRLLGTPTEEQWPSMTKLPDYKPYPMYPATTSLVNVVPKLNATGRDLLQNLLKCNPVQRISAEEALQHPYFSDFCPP
Sequence (Q15078 whole entry, further chain): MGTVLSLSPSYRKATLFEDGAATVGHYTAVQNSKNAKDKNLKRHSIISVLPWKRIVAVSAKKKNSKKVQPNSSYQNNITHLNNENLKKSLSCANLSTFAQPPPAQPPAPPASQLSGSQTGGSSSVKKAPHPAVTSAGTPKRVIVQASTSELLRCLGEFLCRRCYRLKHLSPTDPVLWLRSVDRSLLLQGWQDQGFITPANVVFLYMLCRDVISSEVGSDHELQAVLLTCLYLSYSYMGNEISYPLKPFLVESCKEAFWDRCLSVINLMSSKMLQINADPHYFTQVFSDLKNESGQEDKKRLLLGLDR
// field semantics: pIC50 = negative decimal log of concentration (mol/L)

Examples with their reported pIC50 follow.
>  <mol>
CC(=O)Nc1sc2c(c1Cc1nnc(SCSc3nnc(Cc4c(NC(C)=O)sc5c4CCCC5)n3NC(=O)c3ccccc3)n1NC(=O)c1ccccc1)CCCC2

>  <pIC50>
6.19

$$$$
>  <mol>
CC(=O)Nn1c(Cc2c(NCCC(=O)O)sc3c2CCCC3)nnc1SCC(=O)NNC(=O)CCl

>  <pIC50>
6.58

$$$$
>  <mol>
CC(=O)Nn1c(Cc2c(NC(=O)c3ccccc3)sc3c2CCCC3)nnc1SCC#N

>  <pIC50>
6.25

$$$$

Query compound follows.
stdin: Give recorded pIC50 with Cyclin-dependent kinase 5/CDK5 activator 1 (Homo sapiens, UniProt Q00535) for the following compound: CC(=O)Nn1c(Cc2c(NC(=O)c3ccccc3)sc3c2CCCC3)nnc1SCC(=O)NNC(=O)c1ccccc1
stdout: 6.39
